- method-description: viability loss in pontine glioma line – cell-based, SU-DIPG-XIII, MIPE4.0, CellTiter-Glo, qHTS, dose response (AID 1347061);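 note: cells exposed to compound for 48 hours before readout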
- applied-conditions: CellTiter-Glo ATP luminescence
Records with an inconclusive call do not appear. Calls of active or inactive are those of the source. No cut-off is given here; in the data, nearly all actives have AC50 up to about 37 µM.
Could you please pick one outcome from this set? T for active, F for inactive

[[record]]
compound = "CCNc1cc(NC2CCC(O)CC2)nc(Nc2ccc3c(ccn3Cc3ccccc3)c2)n1 (centres undefined)"
class_name = "F"

[[record]]
compound = "Cc1ccccc1C(C(=O)NC1CCCCC1)N(C(=O)Cn1ccnc1C)c1cccc(F)c1 (centres undefined)"
class_name = "F"

[[record]]
compound = "CN(C)Cc1ccc(-c2nc3cccc4c3n2CCNC4=O)cc1"
class_name = "T"

[[record]]
compound = "CC[C@H]1OC(=O)[C@H](C)C(=O)[C@H](C)[C@@H](O[C@H]2O[C@H](C)C[C@H](N(C)C)[C@H]2O)[C@](C)(OC)C[C@@H](C)C(=O)[C@H](C)[C@H]2N(CCCCn3cnc(-c4cccnc4)c3)C(=O)O[C@]12C"
class_name = "F"

[[record]]
compound = "CCCCC(=O)O[C@]1(C(=O)CO)[C@H](C)C[C@H]2[C@@H]3CCC4=CC(=O)C=C[C@]4(C)[C@@]3(F)[C@@H](O)C[C@@]21C"
class_name = "F"


Entry `CN(C[C@@H]1COCCO1)S(=O)(=O)Nc1ccc2ccc3ncc(-c4cnn(C)c4)cc3c(=O)c2c1` : call = ?
T

---

- method-description: growth inhibition of DIPG cells – cell-based, MIPE5.0 library, qHTS (AID 1347068);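 for IC50: cells exposed to compound for 48 hours before viability readout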
- applied-conditions: SU-DIPG-XXV viability
Records with an inconclusive call do not appear. Active and inactive are the calls of the source. No cut-off is given here; in the data, nearly all actives have IC50 up to about 30 µM.
Could you please pick one outcome from this set? active, inactive

[[record]]
structure = "CC(C)n1cc(-c2ccc3c(c2)N(C)CC3)c2c(NS(=O)(=O)c3ccn(C)n3)ccnc21"
class_name = "inactive"

[[record]]
structure = "Nc1nc(=O)n([C@H]2C[C@H](O)[C@@H](CO)O2)cc1F"
class_name = "inactive"


Entry `COc1cc2c(cc1OC)CC(=O)N(CCCN(C)C[C@H]1Cc3cc(OC)c(OC)cc31)CC2` : call = ?
inactive

Entry `Cc1ccc(NC(=O)C2(c3ccc4c(c3)OC(F)(F)O4)CC2)nc1-c1cccc(C(=O)O)c1` : call = ?
inactive

Entry `CCN(CC)CCCCNc1ncc2cc(-c3cc(OC)cc(OC)c3)c(NC(=O)NC(C)(C)C)nc2n1` : call = ?
active

Entry `COCCn1c2c([n+](Cc3cnccn3)c1C)C(=O)c1ccccc1C2=O` : call = ?
active

Entry `O=C(Nc1cnn2ccc(N3CCC[C@@H]3c3cc(F)ccc3F)nc12)N1CC[C@H](O)C1` : call = ?
inactive

Entry `O=C(O)c1ccc(O)c2ncc(N3CCOCC3)cc12` : call = ?
inactive

Entry `CNc1nc(C)nc(N[C@H]2CCC[C@@H](C(=O)NCc3ccc(C#N)cc3C(F)(F)F)C2)n1` : call = ?
inactive

Entry `CC(C)c1cnn2c(NCc3ccccc3)cc(NCCCCCCN)nc12` : call = ?
active

---

- method-description: drug combination growth inhibition, ovarian cancer – cell-based, oncology-focused library, rucaparib conditional, profiling panel (AID 1508598)
- applied-conditions: patient-derived ovarian cancer cells, CellTiter-Glo viability, 144 h; at 0.000305 µM; OCI-C5x cells; without rucaparib; stronger effect = lower value
Measured viability of individual entries
Kindly provide the numeric value in % only, without the unit symbol.

What measured viability goes with `CO[C@@H](C(=O)N1Cc2[nH]nc(NC(=O)c3ccc(N4CCN(C)CC4)cc3)c2C1)c1ccccc1` ?
95

What measured viability goes with `CC[C@H](Nc1ncnc2nc[nH]c12)c1nc2cccc(F)c2c(=O)n1-c1ccccc1` ?
121

What measured viability goes with `NC1(c2ccc(-c3nc4ccn5c(=O)[nH]nc5c4cc3-c3ccccc3)cc2)CCC1` ?
118

---

- method-description: viability loss in pontine glioma line – cell-based, SU-DIPG-XXV, MIPE5.0, CellTiter-Glo, qHTS, dose response (AID 1347065);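 note: cells exposed to compound for 48 hours before ATP readout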
- applied-conditions: CellTiter-Glo ATP luminescence
Results filed as inconclusive are left out. Active and inactive are the calls of the source. Cut-off not given; nearly all actives show AC50 up to about 26 µM.
test-readout: AC50

[[record]]
molecule = "COc1cc2c(cc1OC)CN(CCc1ccc(NC(=O)c3cccc4c(=O)c5cccc(OC)c5[nH]c34)cc1)CC2"
measurement = "inactive"

[[record]]
molecule = "CC(=O)c1cnc2ccc(-c3cc(Cl)c(O)c(Cl)c3)nc2c1NC1CCC(CN(C)C)CC1 (centres undefined)"
measurement = "121 nM (active)"

[[record]]
molecule = "CCNC(=O)c1cc2c(-c3cc(OCCN4CCCC4)c(Cl)cc3Cl)nc(N)nc2s1"
measurement = "1620 nM (active)"

[[record]]
molecule = "COc1ccc(-c2oc3c(CC=C(C)C)c(OC4O[C@H](CO)[C@@H](O)[C@H](O)[C@H]4O)cc(O)c3c(=O)c2OC2O[C@@H](C)[C@H](O)[C@@H](O)[C@H]2O)cc1 (some centres undefined)"
measurement = "inactive"


---

- method-description: compounds altering HSF1 focus formation in cells – imaging, Selleck Cancer Library (AID 1347162)
- applied-conditions: human cells, HSF1 nuclear foci imaging, at 10 µM; stronger effect = lower value
test-readout: plate-normalised HSF1 focus index
Simply state the number, no unit and no words.

// known answers, use as guide
[[record]]
compound = "CC(C)C[C@H](NC(=O)CNC(=O)c1cc(Cl)ccc1Cl)B1OC(=O)CC(CC(=O)O)(C(=O)O)O1 (some centres undefined)"
test_readout = "plate-normalised HSF1 focus index"
measurement = 1.18

[[record]]
compound = "COc1ccc2cc(-c3nc(-c4ccc(S(C)=O)cc4)[nH]c3-c3ccncc3)ccc2c1 (centres undefined)"
test_readout = "plate-normalised HSF1 focus index"
measurement = 1.27

[[record]]
compound = "CN(C)Cc1ccc(-c2nc3cccc4c3n2CCNC4=O)cc1"
test_readout = "plate-normalised HSF1 focus index"
measurement = 0.994


API: the following record is the query input.
What measured plate-normalised HSF1 focus index goes with `Cc1cc2c(cc1C1(c3ccc(C(=O)O)cn3)CC1)C(C)(C)CCC2(C)C` ?
1.16

---

- method-description: JHH-DIPG-1 glioma cell viability, MIPE5.0 library, CellTiter-Glo luminescence, qHTS (AID 1347067);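 note: cells exposed to compound for 48 hours before readout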
- applied-conditions: JHH-DIPG-1 glioma viability, CellTiter-Glo ATP luminescence
Inconclusive results are not listed. The source made the active and inactive calls. No cut-off is given here; in the data, nearly all actives have AC50 up to about 26 µM.
Could you please pick one outcome from this set? active, inactive

[[record]]
molecule = "COc1cc(Nc2nc3ccccc3nc2NS(=O)(=O)c2ccc(NC(=O)c3ccc(C)c(OC)c3)cc2)cc(OC)c1"
class_name = "inactive"

[[record]]
molecule = "C=C1C(=O)OC(CCCCCCCC)C1C(=O)O (centres undefined)"
class_name = "inactive"

[[record]]
molecule = "COCCNCc1ccc(-c2cc3nccc(Oc4ccc(NC(=S)NC(=O)Cc5ccc(F)cc5)cc4F)c3s2)nc1"
class_name = "active"


Entry Cc1ccc(NS(=O)(=O)c2ccc3c(c2)C2C=CCC2C(c2ccc(C(=O)O)cc2)N3)cc1C (centres undefined) : call = ?
inactive

Entry CCCCNc1ncc2c(-c3ccc(F)cc3)nn(CC3CCC(N)CC3)c2n1 (centres undefined) : call = ?
active

Entry `NCC1CCN(c2nccc(-c3ccc4ccccc4c3)n2)CC1` : call = ?
active

Entry `CCCCCCCCCC(=O)N[C@@H](Cc1c[nH]c2ccccc12)C(=O)N[C@H](CC(N)=O)C(=O)N[C@@H](CC(=O)O)C(=O)N[C@@H]1C(=O)NCC(=O)N[C@@H](CCCN)C(=O)N[C@@H](CC(=O)O)C(=O)N[C@H](C)C(=O)N[C@@H](CC(=O)O)C(=O)NCC(=O)N[C@H](CO)C(=O)N[C@@H]([C@@H](C)CC(=O)O)C(=O)N[C@@H](CC(=O)c2ccccc2N)C(=O)O[C@@H]1C` : call = ?
inactive

Entry `CC(C)NC(=O)N1CC[C@H](N=C2Nc3cc(F)ccc3N(CC(F)F)c3ccc(Cl)cc32)C1` : call = ?
inactive

Entry `C[C@@H]1O[C@@H](O[C@@H]2\C=C/C=C\C=C/C=C\C[C@H](C)OC(=O)/C=C\[C@H]3O[C@@H]3C[C@H](O)C[C@]3(O)C[C@@H](O)[C@@H](C(=O)O)[C@H](C2)O3)[C@H](O)[C@H](N)[C@@H]1O` : call = ?
inactive

Entry `Cn1ncnc1[C@H]1c2n[nH]c(=O)c3cc(F)cc(c23)N[C@@H]1c1ccc(F)cc1` : call = ?
inactive

Entry `C[C@@H]1CN(CC(=O)N2CC(C)(C)c3ncc(Cc4ccc(F)cc4)cc32)[C@@H](CN2CCOC[C@H]2C)CN1` : call = ?
inactive

Entry `COc1ccc(S(=O)(=O)N(C(C)=O)c2ccccc2/C=C/c2cc[n+]([O-])cc2)cc1` : call = ?
active

Entry `CC(C)(NS(=O)(=O)c1ccc2c(Cl)cnc(N=C(N)N)c2c1)C(=O)O` : call = ?
inactive

Entry `CN(C)CCNC(=O)COc1c2cccc1Cc1cccc(c1OCC(=O)NCCN(C)C)Cc1cccc(c1OCC(=O)NCCN(C)C)Cc1cccc(c1OCC(=O)NCCN(C)C)C2` : call = ?
inactive

Entry `COc1ccc2[nH]c3c(c2c1)CCN[C@]31CS[C@@H]2c3c(OC(C)=O)c(C)c4c(c3[C@H](COC1=O)N1[C@@H]2[C@H]2c3c(cc(C)c(OC)c3O)C[C@@H]([C@@H]1O)N2C)OCO4` : call = ?
active

Entry `Cc1ccc(-c2ccc(C)cn2)nc1` : call = ?
inactive

Entry `O=C(O)c1ccccc1C(=O)Nc1ccc(-c2ccccc2)cc1` : call = ?
inactive

Entry `CC(C)c1cnn2c(NCc3ccccc3)cc(NCCCCCCN)nc12` : call = ?
active
